Biological target: BRSK1 (human) (UniProt Q8TDC3)
Sequence (Q8TDC3 whole entry, looked up): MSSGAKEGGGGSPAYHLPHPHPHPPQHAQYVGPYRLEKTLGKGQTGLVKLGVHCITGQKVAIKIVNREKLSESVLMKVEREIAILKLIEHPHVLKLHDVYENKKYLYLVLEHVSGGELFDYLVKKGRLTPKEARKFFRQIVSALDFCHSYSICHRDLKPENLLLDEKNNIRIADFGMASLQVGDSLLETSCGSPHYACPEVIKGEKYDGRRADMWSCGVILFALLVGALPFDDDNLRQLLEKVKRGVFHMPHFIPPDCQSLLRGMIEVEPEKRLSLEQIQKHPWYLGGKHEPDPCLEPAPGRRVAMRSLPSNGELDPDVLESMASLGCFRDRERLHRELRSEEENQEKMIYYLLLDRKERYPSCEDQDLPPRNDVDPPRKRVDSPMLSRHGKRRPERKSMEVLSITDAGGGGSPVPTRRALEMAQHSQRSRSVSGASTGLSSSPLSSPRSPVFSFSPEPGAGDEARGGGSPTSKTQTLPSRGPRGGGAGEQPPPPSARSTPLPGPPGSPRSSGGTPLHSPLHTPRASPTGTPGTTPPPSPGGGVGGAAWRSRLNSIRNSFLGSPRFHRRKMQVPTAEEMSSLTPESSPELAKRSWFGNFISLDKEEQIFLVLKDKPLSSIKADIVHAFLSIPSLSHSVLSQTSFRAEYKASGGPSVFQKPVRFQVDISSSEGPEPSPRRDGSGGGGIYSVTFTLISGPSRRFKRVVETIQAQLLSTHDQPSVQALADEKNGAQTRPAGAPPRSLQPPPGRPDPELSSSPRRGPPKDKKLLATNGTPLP
Test: radiometric filter-binding kinase assay, Kinase HotSpot
Settings: compound 0.5 µM; ATP 10 µM
So I've got a bunch of compounds here, and I need their residual activity values.
Return type: number; implicit unit %.

**Query** Given the entry CC[n+]1c(/C=C/N(C)c2ccccc2)n(-c2ccccc2)c2ccc(-c3nc4ccccc4s3)cc21 , what residual activity was observed with BRSK1 (human) (UniProt Q8TDC3)?
**Result** 101

**Query** Given the entry c1ccc(-c2n[nH]c3c2oc2ccccc23)cc1 , what residual activity was observed with BRSK1 (human) (UniProt Q8TDC3)?
**Result** 92.4

**Query** Given the entry CO[C@H]1CC2CC[C@@H](C)[C@@](O)(O2)C(=O)C(=O)N2CCCC[C@H]2C(=O)OC([C@H](C)C[C@@H]2CC[C@@H](O)[C@H](OC)C2)CC(=O)[C@H](C)/C=C(\C)[C@@H](O)[C@@H](OC)C(=O)[C@H](C)C[C@H](C)/C=C/C=C/C=C/1C (stereo partly drawn) , what residual activity was observed with BRSK1 (human) (UniProt Q8TDC3)?
**Result** 99.9

**Query** Given the entry Cc1[nH]c(/C=C2\C(=O)Nc3ccc(S(=O)(=O)N(C)c4cccc(Cl)c4)cc32)c(C)c1C(=O)N1CCN(C)CC1 , what residual activity was observed with BRSK1 (human) (UniProt Q8TDC3)?
**Result** 101

**Query** Given the entry CCN(CC)CCNC(=O)c1c(C)[nH]c(/C=C2\C(=O)Nc3ccc(F)cc32)c1C , what residual activity was observed with BRSK1 (human) (UniProt Q8TDC3)?
**Result** 45.1

**Query** Given the entry Cc1ccc(NC2=CC(=O)c3sc(C)nc3C2=O)cc1 , what residual activity was observed with BRSK1 (human) (UniProt Q8TDC3)?
**Result** 88.6

**Query** Given the entry CC(=O)c1ccc(N2CCOCC2)cc1O , what residual activity was observed with BRSK1 (human) (UniProt Q8TDC3)?
**Result** 97.6

**Query** Given the entry CNc1cc2c(Nc3cccc(Br)c3)ncnc2cn1 , what residual activity was observed with BRSK1 (human) (UniProt Q8TDC3)?
**Result** 91.2

###

So I've got a bunch of molecules here, and I need their residual activity values.
Biological target: UniProtKB P41279
Sequence (P41279 whole entry, looked up): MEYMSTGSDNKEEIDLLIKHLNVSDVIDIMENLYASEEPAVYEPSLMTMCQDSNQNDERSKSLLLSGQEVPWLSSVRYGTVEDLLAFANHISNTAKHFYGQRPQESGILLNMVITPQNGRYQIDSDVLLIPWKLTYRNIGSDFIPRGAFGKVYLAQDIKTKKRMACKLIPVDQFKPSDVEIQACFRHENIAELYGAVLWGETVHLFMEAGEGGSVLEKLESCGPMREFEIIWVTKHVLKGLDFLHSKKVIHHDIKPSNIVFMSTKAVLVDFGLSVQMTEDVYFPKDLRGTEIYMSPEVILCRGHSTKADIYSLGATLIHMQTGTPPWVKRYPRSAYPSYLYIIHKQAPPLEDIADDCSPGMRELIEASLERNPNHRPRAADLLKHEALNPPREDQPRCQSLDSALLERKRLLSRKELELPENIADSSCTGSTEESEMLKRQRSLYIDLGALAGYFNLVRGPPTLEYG
Experiment: radiometric filter-binding kinase assay, Kinase HotSpot
Details: compound 0.5 µM; ATP 10 µM

**Query** // query residual activity value for entry O=C(Nc1cccc(Nc2nccc(Nc3cccc(C(F)(F)F)c3)n2)c1)C1CC1
**Result** 111%

**Query** // query residual activity value for entry CCC(=O)Nc1ccc2ncnc(Nc3cccc(Br)c3)c2c1
**Result** 93%

**Query** // query residual activity value for entry Cc1ccc(S(=O)(=O)/C=C/C#N)cc1
**Result** 96.2%

**Query** // query residual activity value for entry O=C1Nc2ccc(Cl)cc2/C1=C/c1cc(Cl)c(O)c(Cl)c1
**Result** 93.1%

**Query** // query residual activity value for entry CCN(CC)C(=O)c1ccc(Nc2nc(OCC3CCCCC3)c3nc[nH]c3n2)cc1
**Result** 101%

**Query** // query residual activity value for entry O=c1cc(N2CCOCC2)oc2c1ccc1ccccc12
**Result** 98.3%

**Query** // query residual activity value for entry CC(C)N(CCC(=O)c1ccc2ccccc2c1)Cc1ccccc1
**Result** 94.6%

**Query** // query residual activity value for entry Nc1cccc(-c2cc3c(Oc4cccc(O)c4)ncnc3[nH]2)c1
**Result** 99.6%

**Query** // query residual activity value for entry CNC(=O)c1cc(Oc2ccc(NC(=O)Nc3ccc(Cl)c(C(F)(F)F)c3)cc2)ccn1
**Result** 93.6%

**Query** // query residual activity value for entry Nc1ncnc2c1c(-c1ccc(Oc3ccccc3)cc1)cn2C1CCCC1
**Result** 83.3%

**Query** // query residual activity value for entry Cc1ccc(NC2=CC(=O)c3sc(C)nc3C2=O)cc1
**Result** 90.2%

**Query** // query residual activity value for entry N#CC(C#N)=C(N)/C(C#N)=C/c1ccc(O)cc1
**Result** 96%

**Query** // query residual activity value for entry O=C1NC(=O)c2c1c1c3ccccc3n3c1c1c2c2ccccc2n1C1CCC3O1
**Result** 94.6%

**Query** // query residual activity value for entry CCN(CC)CCNC(=O)c1c(C)[nH]c(/C=C2\C(=O)Nc3ccc(Cl)cc32)c1C
**Result** 113%

**Query** // query residual activity value for entry CCN(CC)CCNC(=O)c1c(C)[nH]c(/C=C2\C(=O)Nc3ccc(F)cc32)c1C
**Result** 117%

###

Target: UniProtKB Q05397
Sequence (Q05397 whole entry, looked up): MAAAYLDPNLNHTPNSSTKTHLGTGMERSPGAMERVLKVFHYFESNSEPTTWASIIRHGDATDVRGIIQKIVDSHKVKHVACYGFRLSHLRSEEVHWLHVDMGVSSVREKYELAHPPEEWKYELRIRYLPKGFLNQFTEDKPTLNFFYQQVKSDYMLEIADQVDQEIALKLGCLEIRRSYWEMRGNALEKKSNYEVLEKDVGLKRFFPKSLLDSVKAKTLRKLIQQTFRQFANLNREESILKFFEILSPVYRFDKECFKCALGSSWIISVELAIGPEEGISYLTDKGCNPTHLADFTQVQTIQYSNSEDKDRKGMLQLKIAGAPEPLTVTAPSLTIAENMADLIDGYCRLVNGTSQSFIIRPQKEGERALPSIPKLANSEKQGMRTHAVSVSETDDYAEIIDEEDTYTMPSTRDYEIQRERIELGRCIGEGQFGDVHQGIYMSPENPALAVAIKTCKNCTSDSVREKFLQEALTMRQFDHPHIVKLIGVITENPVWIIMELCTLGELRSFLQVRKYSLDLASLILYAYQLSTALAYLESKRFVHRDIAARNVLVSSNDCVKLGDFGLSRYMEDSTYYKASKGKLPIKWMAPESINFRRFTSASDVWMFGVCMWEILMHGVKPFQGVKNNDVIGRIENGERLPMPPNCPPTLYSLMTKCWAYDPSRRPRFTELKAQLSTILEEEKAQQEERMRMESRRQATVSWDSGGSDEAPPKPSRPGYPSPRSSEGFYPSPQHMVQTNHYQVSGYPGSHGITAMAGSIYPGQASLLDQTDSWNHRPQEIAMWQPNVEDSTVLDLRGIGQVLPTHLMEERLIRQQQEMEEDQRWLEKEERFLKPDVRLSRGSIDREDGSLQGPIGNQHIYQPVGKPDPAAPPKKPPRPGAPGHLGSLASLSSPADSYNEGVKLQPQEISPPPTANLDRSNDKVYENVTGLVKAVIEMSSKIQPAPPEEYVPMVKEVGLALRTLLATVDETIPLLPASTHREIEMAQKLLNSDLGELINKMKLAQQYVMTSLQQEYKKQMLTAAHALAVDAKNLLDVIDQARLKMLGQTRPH
Assay: radiometric filter-binding kinase assay, Kinase HotSpot
Settings: compound 0.5 µM; ATP 10 µM
Measured Endpoint: residual activity

**Query** Given the entry c1ccc(-c2n[nH]cc2-c2ccnc3ccccc23)nc1 , what residual activity was observed with UniProtKB Q05397?
**Result** 99.3%

**Query** Given the entry Oc1cccc(-c2nc(N3CCOCC3)c3oc4ncccc4c3n2)c1 , what residual activity was observed with UniProtKB Q05397?
**Result** 93.5%

**Query** Given the entry O=c1cc(N2CCOCC2)oc2c1ccc1ccccc12 , what residual activity was observed with UniProtKB Q05397?
**Result** 108%

**Query** Given the entry COc1ccc(COc2ccc(Cc3cnc(N)nc3N)cc2OC)cc1 , what residual activity was observed with UniProtKB Q05397?
**Result** 95.5%

**Query** Given the entry O=C1NC(=O)c2c1c1c3ccccc3n3c1c1c2c2ccccc2n1C1CCC3O1 , what residual activity was observed with UniProtKB Q05397?
**Result** 23.5%

**Query** Given the entry CC#CC(=O)Nc1cc2c(Nc3ccc(F)c(Cl)c3)ncnc2cn1 , what residual activity was observed with UniProtKB Q05397?
**Result** 102%

**Query** Given the entry O=C1NC(=O)C(c2cn(CCCn3ccnc3)c3ccccc23)=C1Nc1ccccc1 , what residual activity was observed with UniProtKB Q05397?
**Result** 104%

**Query** Given the entry Nc1ncnc2[nH]nc(Nc3ccc(F)cc3)c12 , what residual activity was observed with UniProtKB Q05397?
**Result** 103%

**Query** Given the entry CC(C)N(CCC(=O)c1ccc2ccccc2c1)Cc1ccccc1 , what residual activity was observed with UniProtKB Q05397?
**Result** 96.3%

**Query** Given the entry Cc1ccc(S(=O)(=O)/C=C/C#N)cc1 , what residual activity was observed with UniProtKB Q05397?
**Result** 104%

**Query** Given the entry CC(=O)c1ccc(N2CCOCC2)cc1O , what residual activity was observed with UniProtKB Q05397?
**Result** 107%

**Query** Given the entry O=C(Nc1cccc(Nc2nccc(Nc3cccc(C(F)(F)F)c3)n2)c1)C1CC1 , what residual activity was observed with UniProtKB Q05397?
**Result** 89.1%

###

Biological target: AKT1 (human) (UniProt P31749)
Sequence (P31749 whole entry, looked up): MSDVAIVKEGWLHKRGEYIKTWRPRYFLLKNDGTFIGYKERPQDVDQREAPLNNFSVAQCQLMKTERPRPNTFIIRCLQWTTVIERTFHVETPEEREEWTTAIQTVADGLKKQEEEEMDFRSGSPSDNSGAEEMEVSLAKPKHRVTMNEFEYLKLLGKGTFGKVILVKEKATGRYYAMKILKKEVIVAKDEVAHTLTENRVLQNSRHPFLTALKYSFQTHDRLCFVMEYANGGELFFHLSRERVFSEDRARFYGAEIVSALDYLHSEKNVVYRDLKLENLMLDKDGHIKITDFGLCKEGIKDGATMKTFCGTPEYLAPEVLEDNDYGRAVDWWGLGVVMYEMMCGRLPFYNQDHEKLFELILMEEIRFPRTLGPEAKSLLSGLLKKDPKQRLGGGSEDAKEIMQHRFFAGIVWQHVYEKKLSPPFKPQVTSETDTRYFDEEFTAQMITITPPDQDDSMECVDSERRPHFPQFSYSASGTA
Assay: radiometric filter-binding kinase assay, Kinase HotSpot
Details: compound 0.5 µM; ATP 10 µM
So I've got a bunch of molecules here, and I need their residual activity values.
Return type: number; implicit unit %.

**Query** // query residual activity value for entry N#C/C(=C(/N)Sc1ccc(N)cc1)c1ccccc1C(F)(F)F
**Result** 101

**Query** // query residual activity value for entry c1ccc(-c2n[nH]cc2-c2ccnc3ccccc23)nc1
**Result** 100

**Query** // query residual activity value for entry CC[n+]1c(/C=C/N(C)c2ccccc2)n(-c2ccccc2)c2ccc(-c3nc4ccccc4s3)cc21
**Result** 104

**Query** // query residual activity value for entry O=C1NC(=O)c2c1c1c3ccccc3n3c1c1c2c2ccccc2n1C1CCC3O1
**Result** 63.9

**Query** // query residual activity value for entry N#CC(C#N)=C(N)/C(C#N)=C/c1ccc(O)cc1
**Result** 99.2

###

Target: RPS6KA3 KD1 KD2 (human) (UniProt P51812)
Sequence (P51812 whole entry, looked up): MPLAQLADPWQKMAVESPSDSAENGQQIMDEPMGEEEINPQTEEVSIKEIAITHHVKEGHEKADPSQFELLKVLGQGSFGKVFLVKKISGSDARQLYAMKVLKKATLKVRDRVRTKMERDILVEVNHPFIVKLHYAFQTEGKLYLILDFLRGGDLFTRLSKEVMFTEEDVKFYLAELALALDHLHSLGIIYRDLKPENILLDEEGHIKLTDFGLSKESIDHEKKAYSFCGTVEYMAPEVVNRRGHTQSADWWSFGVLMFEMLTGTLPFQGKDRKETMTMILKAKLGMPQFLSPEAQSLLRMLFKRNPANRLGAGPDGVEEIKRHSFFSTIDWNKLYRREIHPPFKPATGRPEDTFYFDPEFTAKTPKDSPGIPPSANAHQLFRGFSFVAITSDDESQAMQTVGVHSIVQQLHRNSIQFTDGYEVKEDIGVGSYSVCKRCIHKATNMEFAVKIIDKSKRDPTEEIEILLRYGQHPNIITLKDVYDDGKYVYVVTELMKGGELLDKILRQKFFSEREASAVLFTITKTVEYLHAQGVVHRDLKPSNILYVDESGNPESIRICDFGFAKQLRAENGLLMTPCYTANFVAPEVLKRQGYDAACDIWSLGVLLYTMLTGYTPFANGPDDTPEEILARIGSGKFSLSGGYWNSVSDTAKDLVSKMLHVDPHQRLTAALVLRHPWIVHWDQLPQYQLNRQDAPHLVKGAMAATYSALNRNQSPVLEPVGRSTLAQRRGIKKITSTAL
Assay: radiometric filter-binding kinase assay, Kinase HotSpot
Conditions: compound 0.5 µM; ATP 10 µM
Measured Endpoint: residual activity (%)
Return type: number; implicit unit %.

**Query** // query residual activity value for entry CCN(CC)C(=O)c1ccc(Nc2nc(OCC3CCCCC3)c3nc[nH]c3n2)cc1
**Result** 17.6

**Query** // query residual activity value for entry CC(=O)c1ccc(N2CCOCC2)cc1O
**Result** 101

**Query** // query residual activity value for entry N#C/C(=C(/N)Sc1ccc(N)cc1)c1ccccc1C(F)(F)F
**Result** 100

**Query** // query residual activity value for entry O=C1NC(=O)C(c2cn(CCCn3ccnc3)c3ccccc23)=C1Nc1ccccc1
**Result** 3.85

**Query** // query residual activity value for entry CNC(=O)c1cc(Oc2ccc(NC(=O)Nc3ccc(Cl)c(C(F)(F)F)c3)cc2)ccn1
**Result** 100

**Query** // query residual activity value for entry Cc1ccc(S(=O)(=O)/C=C/C#N)cc1
**Result** 95.9

**Query** // query residual activity value for entry CCOC(=O)c1c(C)[nH]c(/C=C2\C(=O)Nc3ccccc32)c1C
**Result** 86.4

**Query** // query residual activity value for entry Nc1ncnc2[nH]nc(Nc3ccc(F)cc3)c12
**Result** 89.8

**Query** // query residual activity value for entry Nc1cccc(-c2cc3c(Oc4cccc(O)c4)ncnc3[nH]2)c1
**Result** 96.9

**Query** // query residual activity value for entry CC(C)N(CCC(=O)c1ccc2ccccc2c1)Cc1ccccc1
**Result** 95.1

**Query** // query residual activity value for entry CC[n+]1c(/C=C/N(C)c2ccccc2)n(-c2ccccc2)c2ccc(-c3nc4ccccc4s3)cc21
**Result** 109

Values from the kinase profiling compilation of Christmann-Franck et al. (2016)
